Biological target: 5-hydroxytryptamine receptor 1B (Homo sapiens, UniProt P28222)
Sequence (P28222 whole entry): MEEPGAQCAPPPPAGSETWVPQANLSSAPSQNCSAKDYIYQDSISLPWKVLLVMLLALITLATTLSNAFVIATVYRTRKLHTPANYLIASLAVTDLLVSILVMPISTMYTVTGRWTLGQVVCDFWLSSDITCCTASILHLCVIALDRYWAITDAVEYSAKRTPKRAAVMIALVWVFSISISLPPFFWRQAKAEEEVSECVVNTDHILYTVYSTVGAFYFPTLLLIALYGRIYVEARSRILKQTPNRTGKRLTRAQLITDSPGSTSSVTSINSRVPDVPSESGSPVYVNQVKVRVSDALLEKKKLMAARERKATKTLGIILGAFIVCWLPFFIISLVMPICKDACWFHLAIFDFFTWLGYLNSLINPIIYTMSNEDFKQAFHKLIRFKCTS
Checkbox rule: Ki lower than 10 nM = 1; Ki not lower than 10 nM = 0.

>  <structure>
CN1CCC[C@@H]1Cc1c[nH]c2ccc(C3=CCN(/C(S)=N/C45C[C@H]6C[C@@H](C4)C[C@@H](C5)C6)CC3)cc12

>  <label.class>
0

$$$$
>  <structure>
CN1CCC[C@@H]1Cc1c[nH]c2ccc(C3=CCN(/C(S)=N/c4cccc5ccccc45)CC3)cc12

>  <label.class>
1

$$$$
>  <structure>
CN1CCC[C@@H]1Cc1c[nH]c2ccc(C3=CCN(C(=O)NC45C[C@H]6C[C@@H](C4)C[C@@H](C5)C6)CC3)cc12

>  <label.class>
0

$$$$
>  <structure>
Cc1ccc(NC(=O)N2CC=C(c3ccc4[nH]cc(C[C@H]5CCCN5C)c4c3)CC2)cc1

>  <label.class>
1

$$$$
>  <structure>
Cc1ccc(NC(=S)N2CC=C(c3ccc4[nH]cc(C[C@H]5CCCN5C)c4c3)CC2)cc1

>  <label.class>
1

$$$$
>  <structure>
CN(C)CCc1c[nH]c2ccc(C3=CCN(C)CC3)cc12

>  <label.class>
0

$$$$
>  <structure>
CN1CCC[C@@H]1Cc1c[nH]c2ccc(C3=CCN(C(=O)Nc4ccccc4)CC3)cc12

>  <label.class>
1

$$$$
>  <structure>
Cc1ccc(S(=O)(=O)N2CC=C(c3ccc4[nH]cc(C[C@H]5CCCN5C)c4c3)CC2)cc1

>  <label.class>
0

$$$$
>  <structure>
CN1CCC[C@@H]1Cc1c[nH]c2ccc(C3=CCN(C(=S)NC4CCCCC4)CC3)cc12

>  <label.class>
0

$$$$
>  <structure>
COc1ccc(S(=O)(=O)N2CC=C(c3ccc4[nH]cc(C[C@H]5CCCN5C)c4c3)CC2)cc1

>  <label.class>
0

$$$$
